target: FXR (Homo sapiens (Human), UniProt Q96RI1); assay: FXR EC50 (FXR agonist potency reported with each Example); type: cell-based
Sequence (Q96RI1 262-486): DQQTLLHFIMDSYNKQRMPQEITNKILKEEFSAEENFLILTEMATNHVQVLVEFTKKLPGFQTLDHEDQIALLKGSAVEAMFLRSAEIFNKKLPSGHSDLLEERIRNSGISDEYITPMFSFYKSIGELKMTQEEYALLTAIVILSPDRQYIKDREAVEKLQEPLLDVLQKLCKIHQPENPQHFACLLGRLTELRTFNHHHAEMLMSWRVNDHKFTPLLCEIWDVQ
readout-kind: log10 of EC50 (log10 of the value in nM)
Heads up, the numbers here are log10 of EC50 in nM units.

# count of solved cases: 2
- O=C(C1CCC(F)(F)C1)N(CC12CCC(c3nnc(C4CC4)o3)(CC1)CC2)c1cccc(-c2nnc(C3CC3)o2)c1 (racemic): 2.47
- CC(N(C(=O)C12CC(F)(C1)C2)c1cccc(-c2nc(C3CC3)no2)c1)C12CCC(c3nc(C4CC4)no3)(CC1)CC2 (single isomer, unassigned) [Example 218]: 3.05

Problem: Checklist item: log10 of EC50 tested on FXR (Homo sapiens (Human), UniProt Q96RI1), entry O=C(C1CCC(F)(F)C1)N(CC12CCC(c3nc(CC4CC4)no3)(CC1)CC2)c1cccc(-c2nc(C3CC3)no2)c1 (stereo not drawn) , value?
Solution: 2.68

Problem: Item O=C(C1CC(F)(F)C1)N(CC12CCC(c3nc(C4CC4)no3)(CC1)OC2)c1cccc(-c2nc(C3CC3)no2)c1 with FXR (Homo sapiens (Human), UniProt Q96RI1) - log10 of EC50?
Solution: 2.98

Problem: log10 of EC50 of CCOc1cc(-c2cccc(N(CC34CCC(c5nc(C6CC6)no5)(CC3)CC4)C(=O)C34CC(F)(C3)C4)c2)no1 on FXR (Homo sapiens (Human), UniProt Q96RI1)?
Solution: 1.94

Problem: API: value(readout=log10 of EC50, system=FXR (Homo sapiens (Human), UniProt Q96RI1)) for record O=C(N(CC12CCC(c3nnc(C4CC4)o3)(CC1)CC2)c1cccc(-c2nnc(C3CC3)o2)c1)C12CC(F)(C1)C2
Solution: 2.15

====

EC50: recorded values
biological target: FXR (Homo sapiens (Human)); assay: transient human FXR/Gal4-luciferase reporter assay; type: cell-based; settings: Gal4-hFXR fusion construct, HEK293 reporter cells; response relative to 8 μM GW-4064

Completed entries (count: 4):
- CC(C)(O)c1cnc(-c2ccnc(N(CC34CCC(c5ccc(C(C)(F)F)cn5)(CC3)CC4)C(=O)OC(C)(C)C(F)(F)F)c2)nc1: 301 nM
- CCOc1ccc(-c2cccc(N(CC34CCC(c5nc(C6CC6)no5)(CC3)CC4)C(=O)C34CC(F)(C3)C4)c2)cn1: 66 nM
- CC(C)(C)c1nc(C23CCC(CN(C(=O)C45CC(F)(C4)C5)c4ccnc(-c5cnc(C6CC6)nc5)c4)(CC2)CC3)no1: 226 nM
- COc1nccc(-c2cccc(N(CC34CCC(c5nc(C6CC6)no5)(CC3)CC4)C(=O)C3CCC(F)(F)C3)c2)n1 (stereo not shown): 538 nM

Problem: So what EC50 did CS(=O)(=O)Nc1ccc(-c2cccc(N(CC34CCC(c5nc(C6CC6)no5)(CC3)CC4)C(=O)C34CC(F)(C3)C4)c2)cn1 get with FXR (Homo sapiens (Human))?
Solution: 442 nM

Problem: Observed EC50 on FXR (Homo sapiens (Human)) for COc1cc(-c2cccc(N(CC34CCC(c5nnc(C)s5)(CC3)CC4)C(=O)C34CC(F)(C3)C4)c2)ccn1 , please.
Solution: 465 nM

Problem: API: value(readout= EC50, system= FXR (Homo sapiens (Human)), query= CC(C)(C)c1nc(C23CCC(CN(C(=O)C45CC(F)(C4)C5)c4cccc(-c5ccc(C(F)(F)F)cc5)c4)(CC2)CC3)no1 )
Solution: 719 nM

Problem: // map CCOc1ncc(-c2cccc(N(CC34CCC(c5nc(C6CC6)no5)(CC3)OC4)C(=O)C34CC(F)(C3)C4)c2)cn1 to recorded EC50 (system: FXR (Homo sapiens (Human)))
Solution: 328 nM

Problem: Form entry - test system: FXR (Homo sapiens (Human)); read-out: EC50; compound: N#Cc1cc2c(nc1-c1cccc(N(CC34CCC(c5nc(C6CC6)no5)(CC3)CC4)C(=O)C34CC(F)(C3)C4)c1)CCOC2
Solution: 339 nM

Problem: What measured EC50 is associated with O=C(N(CC12CCC(c3nc(C4CC4)no3)(CC1)CC2)c1cccc(-c2ccn3cnnc3c2)c1)C12CC(F)(C1)C2 on FXR (Homo sapiens (Human))?
Solution: 832 nM

Problem: Write down the reported EC50 of COc1ccc(-c2cccc(N(CC34CCC(c5nc(C6CC6)no5)(CC3)CC4)C(=O)C34CC(F)(C3)C4)c2)cc1 , test system: FXR (Homo sapiens (Human)).
Solution: 19 nM

Problem: I'm curious: which EC50 was measured for COc1ncc(-c2cccc(N(CC34CCC(c5nc(C6CC6)no5)(CC3)CC4)C(=O)C34CC(F)(C3)C4)c2)cn1 tested on FXR (Homo sapiens (Human))?
Solution: 154 nM

Problem: Fill in the recorded EC50 for this compound, with FXR (Homo sapiens (Human)) as test system: CCOc1ncc(-c2cccc(N(CC34CCC(c5cnc(C(F)(F)F)nc5)(CC3)OC4)C(=O)C34CC(F)(C3)C4)c2)cn1
Solution: 2040 nM

====

biological target: FXR (Homo sapiens (Human), UniProt Q96RI1); assay: transient human FXR/Gal4-luciferase reporter assay; format: cell-based; conditions: Gal4-hFXR fusion construct, HEK293 reporter cells; response relative to 8 μM GW-4064
readout-kind: pEC50
Give only the number. pEC50 is defined as minus log10 of concentration in molar units.

- COc1cnc(-c2cccc(N(CC34CCC(c5nc(C(C)(C)C)no5)(CC3)CC4)C(=O)C34CC(F)(C3)C4)c2)nc1: 7.17
- COc1cc(-c2cccc(N(CC34CCC(c5ccnc(C)c5)(CC3)CC4)C(=O)C34CC(F)(C3)C4)c2)ccn1: 6.29

Shift focus to the following entry.
Problem: State the recorded pEC50 for this entry: CC(C)(C)c1nc(C23CCC(CN(C(=O)C45CC(F)(C4)C5)c4cccc(-c5ncc(OC(F)F)cn5)c4)(CC2)CC3)no1
Solution: 7.77

====

molecular target: FXR (Homo sapiens (Human), UniProt Q96RI1); test: transient human FXR/Gal4-luciferase reporter assay; type: cell-based; details: Gal4-hFXR fusion construct, HEK293 reporter cells; response relative to 8 μM GW-4064
pEC50: −log10 of the molar value.
pEC50 below 7 gives n; pEC50 at or above it gives y.

Sample answers from the record:
• O=C(N(CC12CCC(c3cc(C(F)(F)F)ccn3)(CC1)CC2)c1cccc(-c2ccc(NS(=O)(=O)C3CC3)cc2)c1)C12CC(F)(C1)C2 = n
• O=C(C1CC(O)(C(F)(F)F)C1)N(CC12CCC(NS(=O)(=O)C(F)(F)F)(CC1)CC2)c1cccc(-c2ccc(OC(F)F)cc2)c1 (stereo not shown) = n
• CCOc1ccc(-c2cccc(N(CC34CCC(c5noc(C(C)C)n5)(CC3)CC4)C(=O)C34CC(F)(C3)C4)c2)cn1 = y
• CC(C)(C)COC(=O)N(CC12CCC(c3noc(C(C)(F)F)n3)(CC1)CC2)c1cc(-c2ccc(C(C)(C)O)cc2)c(F)cn1 = y
• CC(C)(C)c1noc(C23CCC(CN(C(=O)C45CC(F)(C4)C5)c4cccc(-c5cnc(NS(C)(=O)=O)nc5)c4)(CC2)CC3)n1 = n
• CC(C)(O)c1ccc(-c2cccc(N(CC34CCC(c5noc(C(C)(C)F)n5)(CC3)CC4)C(=O)[C@H]3C[C@@](C)(O)C3)c2)cc1 = y

Problem: In plain terms: is recorded pEC50 at least 7 for Cc1nc2ccc(-c3cccc(N(CC45CCC(c6nc(C(C)(C)C)no6)(CC4)CC5)C(=O)C45CC(F)(C4)C5)c3)cc2s1 ?
Solution: n

Problem: Decide: pEC50 of Cc1nc2ccc(-c3cccc(N(CC45CCC(c6ccc(C#N)cc6)(CC4)OC5)C(=O)C45CC(F)(C4)C5)c3)cc2s1 >= 7?
Solution: n

Problem: Quick check, pEC50 >= 7? CC(F)(F)c1nc(C23CCC(CN(C(=O)C45CC(F)(C4)C5)c4ccc(F)c(N5CCC5)c4)(CC2)CC3)no1
Solution: n

Problem: hey, is pEC50 for this one >= 7? CC1(c2nc(C34CCC(CN(C(=O)C56CC(F)(C5)C6)c5cccc(-c6ccc(OC(F)F)cc6)c5)(CC3)CC4)no2)CC1
Solution: y

Problem: Reported pEC50 reaches at least 7 for Cc1nc2c(C)cc(-c3cccc(N(CC45CCC(c6nc(C7CC7)no6)(CC4)CC5)C(=O)C45CC(F)(C4)C5)c3)cn2n1 ?
Solution: n

Problem: # bool: pEC50 of CCOc1ccc(-c2cccc(N(CC34CCC(c5noc(C(C)C)n5)(CC3)CC4)C(=O)C34CC(F)(C3)C4)c2)cc1 >= 7
Solution: y

Problem: Please tell me: is the compound N#Cc1cnn2c(-c3cccc(N(CC45CCC(c6nc(C7CC7)no6)(CC4)CC5)C(=O)C45CC(F)(C4)C5)c3)cnc2c1 at or over 7 in terms of pEC50?
Solution: n

Problem: Item O=C(N(CC12CCC(c3nc(C4CC4)no3)(CC1)CC2)c1cccc(-c2cc(C(F)(F)F)c3ncnn3c2)c1)C12CC(F)(C1)C2 with pEC50 of 7 or above?
Solution: n

Problem: Exam item: decide whether the reported pEC50 for Cc1nc2ccc(-c3cccc(N(CC45CCC(c6nnc(C7CC7)o6)(CC4)CC5)C(=O)C45CC(F)(C4)C5)c3)cc2s1 is at least 7.
Solution: y

Problem: Item CC(C)(O)c1ccc(-c2cccc(N(CC34CCC(c5noc(C(F)(F)F)n5)(CC3)CC4)C(=O)NCC3CC4(CC4)C3)c2)cc1 with pEC50 of 7 or above?
Solution: n

Problem: Threshold query (pEC50 >= 7) on O=C(N(CC12CCC(c3noc(C4(F)CC4)n3)(CC1)CC2)c1cccc(C2CC2)c1)C12CC(F)(C1)C2
Solution: y

Problem: Does CC(C)(C)c1nc(C23CCC(CN(C(=O)C45CC(F)(C4)C5)c4cccc(-c5ccc(OC(F)F)cn5)c4)(CC2)CC3)no1 have a reported pEC50 of at least 7?
Solution: y

Problem: Identify whether the reported pEC50 of the following compound is 7 or greater: COc1ccc(-c2cccc(N(CC34CCC(c5nc(C(C)C)no5)(CC3)CC4)C(=O)C34CC(F)(C3)C4)c2)cc1
Solution: y

Problem: Record COc1ncc(-c2cccc(N(CC34CCC(c5nc(C(C)C)no5)(CC3)CC4)C(=O)C34CC(F)(C3)C4)c2)cn1 ; criterion: pEC50 no lower than 7. Met?
Solution: y
